- SYSTEM: Peroxisome proliferator-activated receptor alpha (Homo sapiens)
- Sequence (Q07869 whole entry): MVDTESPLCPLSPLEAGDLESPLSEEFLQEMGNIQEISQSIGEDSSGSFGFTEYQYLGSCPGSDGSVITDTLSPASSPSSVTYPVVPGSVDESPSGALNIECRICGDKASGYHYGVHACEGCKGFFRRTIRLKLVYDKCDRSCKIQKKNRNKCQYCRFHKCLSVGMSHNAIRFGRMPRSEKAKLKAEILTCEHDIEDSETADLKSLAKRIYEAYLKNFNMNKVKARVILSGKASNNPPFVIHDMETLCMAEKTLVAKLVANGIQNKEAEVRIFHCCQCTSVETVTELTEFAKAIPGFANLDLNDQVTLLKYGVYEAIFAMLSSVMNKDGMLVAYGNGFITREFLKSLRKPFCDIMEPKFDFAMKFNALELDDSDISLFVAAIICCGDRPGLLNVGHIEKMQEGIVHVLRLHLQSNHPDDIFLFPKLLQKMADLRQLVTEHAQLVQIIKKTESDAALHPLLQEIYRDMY
- EXPERIMENTAL_DETAILS: Binding affinity to PPARalpha (unknown origin) by TR-FRET assay

{"MOLECULE": "C=CC(c1ccc(O)c(OC)c1)c1c(O)cc(O)c2c(=O)cc(-c3ccccc3)oc12 (configuration not stated)", "Ki": "2410 nM"}
{"MOLECULE": "C=CC(c1ccccc1)c1c(O)cc(O)c2c(=O)cc(-c3ccccc3)oc12 (configuration not stated)", "Ki": "960 nM"}

---

Listed below: pKi values for each entry.
- SYSTEM: Peroxisome proliferator-activated receptor delta (Homo sapiens)
- Sequence (Q03181 whole entry): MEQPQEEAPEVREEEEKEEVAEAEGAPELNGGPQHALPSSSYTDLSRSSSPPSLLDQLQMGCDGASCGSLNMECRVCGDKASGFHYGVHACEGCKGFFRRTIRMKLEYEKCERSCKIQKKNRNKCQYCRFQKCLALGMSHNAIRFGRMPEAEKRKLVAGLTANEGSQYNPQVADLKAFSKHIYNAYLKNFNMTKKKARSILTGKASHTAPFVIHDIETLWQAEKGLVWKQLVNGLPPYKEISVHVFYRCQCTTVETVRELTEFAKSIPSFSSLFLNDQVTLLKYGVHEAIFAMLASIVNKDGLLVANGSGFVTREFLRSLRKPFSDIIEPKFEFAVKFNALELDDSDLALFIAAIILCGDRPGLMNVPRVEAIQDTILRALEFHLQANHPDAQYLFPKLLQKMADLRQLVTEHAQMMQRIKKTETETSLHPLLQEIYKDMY
- EXPERIMENTAL_DETAILS: Binding affinity to PPARdelta (unknown origin) by TR-FRET assay
pKi: −log10 of the molar value.
REPORTED_ENDPOINT: pKi

{"COMPOUND": "C=CC(c1ccccc1)c1c(O)cc(O)c2c(=O)cc(-c3ccccc3)oc12 (configuration not stated)", "REPORTED_ENDPOINT": "pKi", "READOUT_VALUE": 5.93}
{"COMPOUND": "C=CC(c1ccc(O)c(OC)c1)c1c(O)cc(O)c2c(=O)cc(-c3ccccc3)oc12 (configuration not stated)", "REPORTED_ENDPOINT": "pKi", "READOUT_VALUE": 5.61}

---

- SYSTEM: Peroxisome proliferator-activated receptor gamma (Homo sapiens, UniProt P37231)
- Sequence (P37231 whole entry): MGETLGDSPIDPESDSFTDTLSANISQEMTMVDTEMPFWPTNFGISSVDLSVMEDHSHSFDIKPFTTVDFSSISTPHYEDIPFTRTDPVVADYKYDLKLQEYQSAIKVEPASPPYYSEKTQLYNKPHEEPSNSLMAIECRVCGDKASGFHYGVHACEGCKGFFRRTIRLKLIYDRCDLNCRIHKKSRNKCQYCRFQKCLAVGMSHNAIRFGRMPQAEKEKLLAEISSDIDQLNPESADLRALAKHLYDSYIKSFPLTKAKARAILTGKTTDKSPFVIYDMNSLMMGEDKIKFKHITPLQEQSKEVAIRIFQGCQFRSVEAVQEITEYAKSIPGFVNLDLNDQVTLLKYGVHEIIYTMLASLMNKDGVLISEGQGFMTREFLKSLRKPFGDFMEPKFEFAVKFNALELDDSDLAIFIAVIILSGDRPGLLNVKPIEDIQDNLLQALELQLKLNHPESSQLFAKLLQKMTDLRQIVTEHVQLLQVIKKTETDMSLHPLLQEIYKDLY
- EXPERIMENTAL_DETAILS: Binding affinity to PPARgamma (unknown origin) by TR-FRET assay
REPORTED_ENDPOINT: Ki

{"COMPOUND": "C=CC(c1ccccc1)c1c(O)cc(O)c2c(=O)cc(-c3ccccc3)oc12 (configuration not stated)", "READOUT_VALUE": "1410 nM"}
{"COMPOUND": "C=CC(c1ccc(O)c(OC)c1)c1c(O)cc(O)c2c(=O)cc(-c3ccccc3)oc12 (configuration not stated)", "READOUT_VALUE": "2530 nM"}
